# targetOrTestSystem: Histone deacetylase 3 (Homo sapiens, UniProt O15379)
# Sequence (O15379 whole entry, the tested form may be a part): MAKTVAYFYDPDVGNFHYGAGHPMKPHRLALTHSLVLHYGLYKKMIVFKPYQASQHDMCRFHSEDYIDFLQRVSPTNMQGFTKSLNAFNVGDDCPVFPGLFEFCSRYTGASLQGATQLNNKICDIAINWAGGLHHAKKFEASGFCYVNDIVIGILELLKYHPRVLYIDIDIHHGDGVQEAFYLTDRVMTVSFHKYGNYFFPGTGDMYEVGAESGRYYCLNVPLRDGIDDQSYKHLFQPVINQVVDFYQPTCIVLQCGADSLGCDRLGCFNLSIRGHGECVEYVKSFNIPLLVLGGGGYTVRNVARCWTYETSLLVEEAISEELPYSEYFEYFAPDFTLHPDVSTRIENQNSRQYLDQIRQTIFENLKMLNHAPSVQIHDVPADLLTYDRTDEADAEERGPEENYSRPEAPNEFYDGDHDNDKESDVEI
# protocol: Inhibition of human recombinant full length C-terminal His-tagged HDAC3 (1 to 428 residues) expressed in baculovirus infected insect cells using RHK-K(Ac)-AMC as substrate after 60 mins by fluorimetry analysis
IC50 values by entry
quantityMeasured: IC50 (nM)

>>> observed("CC(C)c1cc(C(=O)N(C)c2ccc(NC(=O)CCCCCCC(=O)NO)cc2)c(O)cc1O")
2060
>>> observed("CC(C)c1cc(C(=O)N(C)c2ccc(NC(=O)CCCCCCCC(=O)NO)cc2)c(O)cc1O")
1440

* * *

# protocol: cells
# Format: ADME, cell-based
# conditionInfo: Homo sapiens, SC9
IC50 values by entry
quantityMeasured: IC50 (nM)

>>> observed("O=C(CCCCC[C@@H](NC(=O)c1ccccc1)C(=O)Nc1ccc2ncccc2c1)NO")
90
>>> observed("O=C(CCCCC[C@@H](NC(=O)c1ccccc1)C(=O)Nc1ccccc1)NO")
73

* * *

# targetOrTestSystem: Histone deacetylase 9 (Homo sapiens)
# Sequence (Q9UKV0 whole entry): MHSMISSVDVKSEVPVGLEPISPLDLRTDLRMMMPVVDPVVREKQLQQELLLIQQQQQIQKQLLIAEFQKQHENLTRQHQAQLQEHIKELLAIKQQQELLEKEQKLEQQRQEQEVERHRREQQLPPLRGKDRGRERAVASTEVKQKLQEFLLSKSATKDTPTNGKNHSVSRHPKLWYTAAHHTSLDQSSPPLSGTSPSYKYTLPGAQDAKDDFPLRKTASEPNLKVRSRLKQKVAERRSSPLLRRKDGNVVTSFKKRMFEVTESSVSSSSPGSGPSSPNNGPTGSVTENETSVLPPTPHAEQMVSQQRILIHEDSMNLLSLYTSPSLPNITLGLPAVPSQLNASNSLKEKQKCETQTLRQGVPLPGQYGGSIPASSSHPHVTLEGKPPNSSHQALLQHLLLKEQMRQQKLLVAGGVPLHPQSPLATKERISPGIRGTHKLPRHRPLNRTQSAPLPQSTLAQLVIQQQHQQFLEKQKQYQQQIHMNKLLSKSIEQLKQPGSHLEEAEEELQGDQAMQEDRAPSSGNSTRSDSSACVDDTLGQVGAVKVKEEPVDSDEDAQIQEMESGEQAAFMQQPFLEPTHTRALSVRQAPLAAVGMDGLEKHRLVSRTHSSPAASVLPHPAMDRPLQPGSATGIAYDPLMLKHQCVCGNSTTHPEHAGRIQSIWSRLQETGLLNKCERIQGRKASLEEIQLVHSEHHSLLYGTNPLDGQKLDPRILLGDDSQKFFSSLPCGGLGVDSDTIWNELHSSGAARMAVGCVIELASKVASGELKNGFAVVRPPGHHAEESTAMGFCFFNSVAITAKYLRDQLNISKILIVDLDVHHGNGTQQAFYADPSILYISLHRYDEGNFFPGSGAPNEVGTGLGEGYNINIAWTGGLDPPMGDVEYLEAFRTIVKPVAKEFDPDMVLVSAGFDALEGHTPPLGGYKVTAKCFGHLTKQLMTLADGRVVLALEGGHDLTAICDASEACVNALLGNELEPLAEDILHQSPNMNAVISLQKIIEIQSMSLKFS
# protocol: Inhibition of human HDAC9 using (Boc-Lys(trifluoroacetyl)-AMC) as substrate by fluorescence assay
pIC50: −log10 of the molar value.
pIC50 values by entry
quantityMeasured: pIC50

>>> observed("CC(C)c1cc(C(=O)N(C)c2ccc(NC(=O)CCCCCCC(=O)NO)cc2)c(O)cc1O")
"< 5.00"
>>> observed("CC(C)c1cc(C(=O)N(C)c2ccc(NC(=O)CCCCCCCC(=O)NO)cc2)c(O)cc1O")
"< 5.00"

* * *

# System: NCI-H1975
# protocol: cells
# Format: functional
# conditionInfo: Homo sapiens, NCI-H1975, 48 h
quantityMeasured: GI50 (µM)

>>> observed("CC(C)c1cc(C(=O)N(C)c2cccc(NC(=O)CCCCCCC(=O)NO)c2)c(O)cc1O")
1.66
>>> observed("CCN(C(=O)c1cc(C(C)C)c(O)cc1O)c1cccc(NC(=O)CCCCCCC(=O)NO)c1")
0.94
>>> observed("CC(C)c1cc(C(=O)N(C)c2ccc(NC(=O)CCCCCCCCC(=O)NO)cc2)c(O)cc1O")
0.21
>>> observed("CCN(C(=O)c1cc(C(C)C)c(O)cc1O)c1ccc(NC(=O)CCCCCCC(=O)NO)cc1")
1.38
>>> observed("C=CCNC1=C2C[C@@H](C)C[C@H](OC)[C@H](O)[C@@H](C)/C=C(\\C)[C@H](OC(N)=O)[C@@H](OC)/C=C\\C=C(/C)C(=O)NC(=CC1=O)C2=O (stereo in doubt)")
0.16

* * *

# targetOrTestSystem: Histone deacetylase 7 (Homo sapiens, UniProt Q8WUI4)
# Sequence (Q8WUI4 whole entry, the tested form may be a part): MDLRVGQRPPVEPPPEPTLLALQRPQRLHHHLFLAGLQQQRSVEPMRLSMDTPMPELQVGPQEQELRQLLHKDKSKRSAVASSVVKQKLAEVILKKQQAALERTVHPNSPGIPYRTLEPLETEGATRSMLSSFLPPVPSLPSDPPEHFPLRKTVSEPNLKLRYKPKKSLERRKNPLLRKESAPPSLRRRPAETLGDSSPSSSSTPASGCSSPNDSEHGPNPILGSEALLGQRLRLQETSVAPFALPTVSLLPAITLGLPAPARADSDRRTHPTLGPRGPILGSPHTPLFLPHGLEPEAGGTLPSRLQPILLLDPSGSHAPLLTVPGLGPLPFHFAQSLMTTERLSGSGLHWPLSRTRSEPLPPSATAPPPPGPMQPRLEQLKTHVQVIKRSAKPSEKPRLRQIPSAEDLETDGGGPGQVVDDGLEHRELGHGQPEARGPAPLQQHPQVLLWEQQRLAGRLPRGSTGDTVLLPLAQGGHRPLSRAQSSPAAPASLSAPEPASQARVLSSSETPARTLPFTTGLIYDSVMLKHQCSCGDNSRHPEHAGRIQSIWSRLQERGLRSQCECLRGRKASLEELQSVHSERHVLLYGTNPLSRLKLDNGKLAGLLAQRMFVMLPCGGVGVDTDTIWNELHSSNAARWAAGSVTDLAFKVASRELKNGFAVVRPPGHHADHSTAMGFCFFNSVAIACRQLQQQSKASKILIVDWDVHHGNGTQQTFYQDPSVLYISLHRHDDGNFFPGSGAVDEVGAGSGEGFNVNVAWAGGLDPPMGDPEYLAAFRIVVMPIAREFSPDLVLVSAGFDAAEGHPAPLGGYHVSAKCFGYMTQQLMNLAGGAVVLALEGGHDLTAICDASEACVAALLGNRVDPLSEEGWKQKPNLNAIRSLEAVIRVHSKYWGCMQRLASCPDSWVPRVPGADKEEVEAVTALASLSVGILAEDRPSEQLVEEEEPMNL
# protocol: Inhibition of recombinant human N-terminal GST-tagged HDAC7 (518 to 991 residues) expressed in baculovirus infected insect cells using Boc-K(Ac)-AMC as substrate after 90 mins by fluorimetry analysis
quantityMeasured: IC50 (µM)

>>> observed("CC(C)c1cc(C(=O)N(C)c2ccc(NC(=O)CCCCCCCC(=O)NO)cc2)c(O)cc1O")
6.4

* * *

# Tested on: NCI-H1975
# protocol: cells
# Assay type: functional
# conditionInfo: Homo sapiens, NCI-H1975, 48 h
GI50 values by entry
quantityMeasured: GI50 (nM)

>>> observed("CC(C)c1cc(C(=O)N(C)c2ccc(NC(=O)CCCCCC(=O)NO)cc2)c(O)cc1O")
690
>>> observed("CC(C)c1cc(C(=O)N(C)c2ccc(NC(=O)CCCCCCCC(=O)NO)cc2)c(O)cc1O")
400
>>> observed("CC(C)c1cc(C(=O)N(C)c2ccc(NC(=O)CCCCCCC(=O)NO)cc2)c(O)cc1O")
690
